Data origin: paper PMC9456261

# run description: in vitro
# recorded conditions: African green monkey
Listed here are compounds together with their documented CC50.

given_smiles=Cc1cc(C)cc(OCCCCCn2ccc(=O)n(CCCCCOc3ccc(C(=O)O)cc3)c2=O)c1 readout_name=CC50 reported_value="> 25 µM"
given_smiles=O=C(O)c1ccc(OCCCn2c(=O)ccn(CCCCCCCCCCCCOc3ccc(Br)cc3)c2=O)cc1 readout_name=CC50 reported_value="> 25 µM"

As a next step, examine the compound that follows.
CC50 for `O=C(O)c1ccc(Cn2c(=O)ccn(CCCCCOc3ccc(Br)cc3)c2=O)cc1` is > 50 µM
